This collection of values is drawn from paper doi:10.1101/2024.08.25.609621.

Target: SARS-CoV-2 NSP3 macrodomain (Mac1), P43 crystal form (Severe acute respiratory syndrome coronavirus 2)
Type: binding
Details: PanDDA background density correction
Hi, to clarify the labels: 1 covers 1-BDC from 0.2 upward, 0 covers anything below 0.2.

Answered examples (8):
**Query** Kindly determine if 1-BDC recorded for OCC(COCc1ccccc1)Nc1ncnc2[nH]ccc12 (centres unmarked) is above or exactly 0.2.
**Result** 0

**Query** Kindly determine if 1-BDC recorded for CC(O)C1CCCN1c1ncnc2[nH]ccc12 (centres unmarked) is above or exactly 0.2.
**Result** 1

**Query** Kindly determine if 1-BDC recorded for OCC(CC(O)c1ccccc1)Nc1ncnc2[nH]ccc12 (centres unmarked) is above or exactly 0.2.
**Result** 0

**Query** Kindly determine if 1-BDC recorded for OCC(Nc1ncnc2[nH]ccc12)C1CCOC1 (centres unmarked) is above or exactly 0.2.
**Result** 0

**Query** Kindly determine if 1-BDC recorded for CCC1(O)CCN(c2ncnc3[nH]ccc23)C1 (centres unmarked) is above or exactly 0.2.
**Result** 0

**Query** Kindly determine if 1-BDC recorded for OC1(CNc2ncnc3[nH]ccc23)CCCCC1 is above or exactly 0.2.
**Result** 1

**Query** Kindly determine if 1-BDC recorded for C[C@H]1CC[C@H](CO)N(c2ncnc3[nH]ccc23)C1 (racemic) is above or exactly 0.2.
**Result** 0

**Query** Kindly determine if 1-BDC recorded for OC1(CNc2ncnc3[nH]ccc23)CCCSC1 (centres unmarked) is above or exactly 0.2.
**Result** 1

Next:
**Query** Kindly determine if 1-BDC recorded for Cc1cc2c(=O)n(CCN3C(=O)c4ccccc4S3(=O)=O)nnc2s1 is above or exactly 0.2.
**Result** 0

**Query** Kindly determine if 1-BDC recorded for CC1CC(C(=O)O)CCN1C(=O)c1ccc2c(c1)NC(=O)CO2 (centres unmarked) is above or exactly 0.2.
**Result** 0

**Query** Kindly determine if 1-BDC recorded for OCC(Nc1ncnc2[nH]ccc12)C1CCc2ccccc21 (centres unmarked) is above or exactly 0.2.
**Result** 1

**Query** Kindly determine if 1-BDC recorded for CCC(C)(CO)Nc1ncnc2[nH]ccc12 (centres unmarked) is above or exactly 0.2.
**Result** 0

**Query** Kindly determine if 1-BDC recorded for OCC(CC(F)(F)F)Nc1ncnc2[nH]ccc12 (centres unmarked) is above or exactly 0.2.
**Result** 1

**Query** Kindly determine if 1-BDC recorded for OC[C@@H]1C[C@@H]2CCC[C@@H]2N1c1ncnc2[nH]ccc12 is above or exactly 0.2.
**Result** 1

**Query** Kindly determine if 1-BDC recorded for CC(C)n1nnnc1SCc1c(C(=O)O)sc2cccc(F)c12 is above or exactly 0.2.
**Result** 1

**Query** Kindly determine if 1-BDC recorded for CC1(C)CCN(c2ncnc3[nH]ccc23)C(CO)C1 (centres unmarked) is above or exactly 0.2.
**Result** 1

**Query** Kindly determine if 1-BDC recorded for CC(C)(O)C1N(c2ncnc3[nH]ccc23)CCC1(C)C (centres unmarked) is above or exactly 0.2.
**Result** 0

**Query** Kindly determine if 1-BDC recorded for O=C(O)C(F)(F)F.OC[C@H]1CC2(CN1c1ncnc3[nH]ccc13)OCCO2 is above or exactly 0.2.
**Result** 1

**Query** Kindly determine if 1-BDC recorded for OCC(Nc1ncnc2[nH]ccc12)c1ccco1 (centres unmarked) is above or exactly 0.2.
**Result** 0

**Query** Kindly determine if 1-BDC recorded for OCC1C2CCC(C2)N1c1ncnc2[nH]ccc12 (centres unmarked) is above or exactly 0.2.
**Result** 1
